Give measured growth inhibition for each item. Keep answers brief.
- test.method.notes: NCI Yeast Anticancer Drug Screen. Data for the sgs1 strain (AID 173);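 further: 0% = growth of vehicle-only control cultures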
- assay.setup: S. cerevisiae sgs1 mutant, at 100.0 µM, active compounds read high
This is part of a sample that, as a whole, favours compounds with a hit. Of some 79,000 tested, about 15% had one in any assay.
One number for each entry, in %.

Reference set (6 entries):
{"molecule": "C[C@H](CCC1=NC(C)(C)CO1)C1CCC2[C@@H]3C(O)C[C@@H]4CC(O)CC[C@]4(C)C3CC[C@@]21C (stereo not given in full)", "growth inhibition, %": 100}
{"molecule": "CC(=O)NC(c1nc2cc(C)c(C)cc2[nH]1)c1nc2cc(C)c(C)cc2[nH]1", "growth inhibition, %": 73}
{"molecule": "CCN(CC)CCNc1ccc2ncn3c4ccc(O)cc4c(=O)c1c23", "growth inhibition, %": -1}
{"molecule": "NC(CCCCCCCCCCCCC(N)C(=O)c1ccccc1)C(=O)c1ccccc1 (stereo not given)", "growth inhibition, %": 95}
{"molecule": "COc1ccc(/C=C2\\SC(=S)N(/C=C3\\C(=O)N(c4ccccc4)N=C3C)C2=O)cc1OC", "growth inhibition, %": 90}
{"molecule": "N#CC1OB(O)c2ccccc21 (stereo not given)", "growth inhibition, %": 1}

For each listed entry, give its growth inhibition.
1. CNC(=O)OCc1c(COC(=O)NC)c(C)n(-c2ccc(Br)cc2)c1C
2. CC(C)NCCCNc1c2ccccc2nc2cccc([N+](=O)[O-])c12
3. NC(=S)N/N=C1\c2ccccc2CCC1CCC1(O)CCc2ccccc2C1=O (stereo not given)
4. CC1CN(/N=C\c2ccc([N+](=O)[O-])o2)C(=O)O1 (stereo not given)

Result:
96
98
84
87

###

- test.method.notes: NCI Yeast Anticancer Drug Screen. Data for the CLN2oe strain (AID 163);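 further: 0% = growth of vehicle-only control cultures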
- assay.setup: S. cerevisiae CLN2oe strain, at 11.0 µM, active compounds read high
About 79,000 compounds went through this panel and 15% of them were active in at least one assay; those are over-represented in the sample as a whole. Residues, ends and D or L forms follow the SMILES beside them. *: point of attachment. Fmoc = O=C(OCC1c2ccccc2-c2ccccc21)*; Boc = CC(C)(C)OC(=O)*
recorded.metric: growth inhibition (%)
Give bare numbers, in %.

{"molecule": "CC(C)(C)OC(=O)NCCCCC(NC(=O)C(Cc1c[nH]c2ccccc12)NC(=O)OCC1c2ccccc2-c2ccccc21)C(=O)O (stereo not given) (Fmoc-Trp-Lys(Boc)-OH; configuration not given here)", "value.reported": -7}

Take each entry in turn and give its growth inhibition.
1. CN(C)CCCn1c2c3ccccc3ccc2c2oc(=O)c3ccccc3c21
2. O=C(CCSC1=NCCCN1)c1ccc(F)cc1
3. c1ccc([P+](CCN2Cc3ccccc3C2)(c2ccccc2)c2ccccc2)cc1
4. CCCCCCC1OCC(O)C(OCCCC)O1 (stereo not given)
5. CC(C)=CCC/C(C)=C/CN1C(=O)C=CC1=O
6. CC(C)S(=O)(=O)/C=C\S(=O)(=O)C(C)C
7. Clc1ccc(/C(=C\c2ccccc2)Cn2ccnc2)cc1

Result:
1. 44
2. -24
3. 29
4. -12
5. 81
6. 4
7. 48

Items follow; give growth inhibition for each.
1. CC1=CC(=C(c2ccc(N)c(C)c2)c2ccc(N)c(C)c2)C=CC1=N
2. O=C1Nc2ccc(Br)cc2C1=Nc1cccnc1

Result:
1: 41; 2: -18

###

- test.method.notes: NCI Yeast Anticancer Drug Screen. Data for the wt2 strain (AID 169);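 further: 0% = growth of vehicle-treated yeast cultures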
- assay.setup: S. cerevisiae wt2 strain growth inhibition; at 100.0 µM; active compounds read high
- Experimental: Growth inhibition of yeast strains with defined genetic alterations is measured as a screen for potential anti-cancer activity. Selected strains with alterations in DNA damage repair or cell cycle control were exposed to compounds and growth inhibition was measured relative to vehicle treated controls. The strain used in this assay is wt2
The panel holds about 79,000 compounds, 15% with a hit somewhere; the sample as a whole holds those more often. Residues, ends and D or L forms follow the SMILES beside them. *: point of attachment. Fmoc = O=C(OCC1c2ccccc2-c2ccccc21)*; Boc = CC(C)(C)OC(=O)*
recorded.metric: growth inhibition (%)
Give bare numbers, in %.

# count of solved cases: 4
{"compound": "CNC(=O)OCc1c2ccncc2c(C)c2c1[nH]c1ccccc12", "value.reported": 42}
{"compound": "Fc1cc(F)c(F)c(S)c1F", "value.reported": 98}
{"compound": "O=CC1(F)CC1(c1ccccc1)c1ccccc1 (stereo unspecified)", "value.reported": 98}
{"compound": "CC(C)(C)OC(=O)NCCCCC(NC(=O)C(Cc1c[nH]c2ccccc12)NC(=O)OCC1c2ccccc2-c2ccccc21)C(=O)O (stereo unspecified) (Fmoc-Trp-Lys(Boc)-OH; configuration not given here)", "value.reported": 61}

Give one value of growth inhibition per listed compound.
1. CN(C)CC(CN(C)C)C(=O)/C=C/c1ccc(Cl)cc1Cl
2. NNc1ccccc1-c1nc2ccccc2[nH]1

Result:
1. 98
2. 47

# return growth inhibition for each item in the list
1. CN(C)N=Nc1ccc(N(C)C)cc1
2. CC12CCC(CC(=O)/C1=C(/Br)I)C2(C)C (stereo unspecified)

Result:
1. 13
2. 0

For each listed entry, give its growth inhibition.
1. CS(=O)(=O)O.[Ag]
2. CC(C)OP(=O)(OC(C)C)/C(Cl)=N/Nc1ccc([N+](=O)[O-])cc1
3. O=C(NCCCCN(CCCNC(=O)C(F)(F)F)Cc1ccccc1)C(F)(F)F

Result:
1: 98; 2: 93; 3: -12

###

- test.method.notes: NCI Yeast Anticancer Drug Screen. Data for the bub3 strain (AID 167)
- assay.setup: S. cerevisiae bub3 mutant strain, at 5.0 µM (retest, dose inferred, filed as 0.5), active compounds read high
Compounds without any hit were thinned out: in the full panel of roughly 79,000, 15% have a hit.
recorded.metric: growth inhibition (%)
One number for each entry, in %.

{"smiles.notation": "O=C(O)CNC(c1ccccc1)(c1ccccc1)c1ccccc1", "growth inhibition (%)": -8}
{"smiles.notation": "O=C(/C(=C/c1ccc(O)cc1)c1ccccc1)c1ccccc1", "growth inhibition (%)": 2}
{"smiles.notation": "CC(C)=CCc1c2c(c(O)c3c(=O)c(-c4ccc(O)c(O)c4)coc13)C=CC(C)(C)O2", "growth inhibition (%)": 14}
{"smiles.notation": "CCCCN(CCCC)c1ccc(N=Nc2ccc(S(=O)(=O)O)cc2)cc1", "growth inhibition (%)": -2}
{"smiles.notation": "CCCN=Cc1cc(Cc2ccc(O)c(C=NCCC)c2)ccc1O", "growth inhibition (%)": -49}

Shifting focus to the compound that follows.
Request: Fill in the blank: the reported growth inhibition of CC1=CC(=C(c2ccc(N)c(C)c2)c2ccc(N)c(C)c2)C=CC1=N is ____.
Result: 18

###

- test.method.notes: NCI Yeast Anticancer Drug Screen. Data for the rad52 strain (AID 147);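 further: 0% = growth of vehicle-treated control cultures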
- assay.setup: S. cerevisiae rad52 mutant growth inhibition; at 100.0 µM; active compounds read high
This is part of a sample that, as a whole, favours compounds with a hit. Of some 79,000 tested, about 15% had one in any assay.
Short version: growth inhibition at least 90% is Criterion met, less is Criterion not met.

{"compound": "CC(C)OC(=O)NNc1cc(Cl)ccc1Cl", "class": "Criterion not met"}
{"compound": "CC(C)(C)c1ccc2c(c1)C(=O)c1ccccc1C2=O", "class": "Criterion not met"}
{"compound": "CCCCCCCCCCCCCCN", "class": "Criterion met"}
{"compound": "OC1(C#CI)CCCCC1", "class": "Criterion met"}
{"compound": "OC(Cc1cccc2ccccc12)CN1CCC(c2ccccc2)CC1 (stereo not given)", "class": "Criterion met"}
{"compound": "C=CC(C)(C)N1C(=O)C(C(C)=O)=C(O)C1Cc1c[nH]c2ccccc12 (stereo not given)", "class": "Criterion not met"}
{"compound": "C[N+](C)([O-])CCCNc1c2ccccc2nc2cccc([N+](=O)[O-])c12", "class": "Criterion met"}
{"compound": "O=C(/C(=C/c1ccc(O)cc1)c1ccccc1)c1ccccc1", "class": "Criterion met"}

Request: Is reported growth inhibition greater than or equal to 90% here: O=C1/C(=C/c2ccc(Cl)c(Cl)c2)CNC/C1=C\c1ccc(Cl)c(Cl)c1
Result: Criterion met

Request: Exam item: decide whether the reported growth inhibition for COc1ccc(C(C)c2cc3c(cc2OCC(C)=O)OCO3)cc1 (stereo not given) is at least 90%.
Result: Criterion not met

Request: API: above_or_equal(metric=growth inhibition, cutoff=90%) for item CCOC(=O)/C(=C/c1cccc(Cl)c1)N(CC)CC
Result: Criterion met

Request: Does the compound CC(=O)/C=C/c1cc([N+](=O)[O-])ccc1O have recorded growth inhibition that is 90% or more?
Result: Criterion met

Request: Kindly determine if growth inhibition recorded for CCOP(=O)(OCC)/C(C#N)=C\c1cccc2ccccc12 is above or exactly 90%.
Result: Criterion met

Request: Say whether O=C(CN(c1ccccc1)c1ccccc1)n1nnc2ccccc21 shows growth inhibition of 90% or more.
Result: Criterion not met

Request: Quick check: does COc1ccc2nc3cccc([N+](=O)[O-])c3c(NCCNCCN(C)C)c2c1 have growth inhibition greater than or equal to 90%?
Result: Criterion not met
